This collection of values is drawn from patent US11174245B2.

pIC50 values for the compounds below.
Target: EGFR (mutated) 695-1022, T790M, C797S, L858R (Homo sapiens (Human), UniProt P00533, C797S/L858R/T790M)
Sequence (P00533 695-1022 T790M/C797S/L858R): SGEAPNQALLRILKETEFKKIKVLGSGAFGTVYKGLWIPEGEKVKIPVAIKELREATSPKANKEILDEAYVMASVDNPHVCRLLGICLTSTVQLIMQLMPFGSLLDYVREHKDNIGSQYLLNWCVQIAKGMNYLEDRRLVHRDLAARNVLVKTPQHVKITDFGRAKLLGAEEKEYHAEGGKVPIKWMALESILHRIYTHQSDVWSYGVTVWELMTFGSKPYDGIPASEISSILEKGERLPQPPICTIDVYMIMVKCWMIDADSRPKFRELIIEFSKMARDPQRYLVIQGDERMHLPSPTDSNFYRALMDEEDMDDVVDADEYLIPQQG
Experiment: Biochemical EGFR inhibition assay (TR-FRET, poly-GT substrate), EGFR T790M C797S L858R
Conditions: read-out: LR_TM_CS (100 μM ATP) IC50; 100 μM ATP
Lab note: report pIC50 as minus log10 of the concentration in molar units, number only.

# count of solved cases: 3
CC(C)(O)Cn1/c(=N/C(=O)c2ccnc(-c3cccnc3)c2)[nH]c2cc(CC(=O)N3CCCCC3)ccc21: 6.75
Cn1cc(-c2cc(C(=O)/N=c3\[nH]c4ccccc4n3C3CCCC3)ccn2)cn1: 7.21
Cc1c(-c2cc(C(=O)/N=c3\[nH]c4ccccc4n3C3CCCC3)ccn2)cnn1C: 7.41

Task: Name the recorded pIC50 for COC(=O)Cc1ccc2c(c1)[nH]/c(=N\C(=O)c1ccnc(-c3cnn(C)c3)c1)n2CC(C)(C)O .
Output: 7.06

Task: Field entry: COc1ccccc1-c1cc(C(=O)/N=c2\[nH]c3ccccc3n2CC(C)(C)O)ccn1
Output: 7.99

Task: Field entry: CC(C)(O)Cn1/c(=N/C(=O)c2ccnc(-c3cccnc3)c2)[nH]c2cc(C3CCCOC3)ccc21 (centres unmarked)
Output: 6.72

Task: Field entry: COC(=O)Cc1ccc2c(c1)[nH]/c(=N\C(=O)c1ccnc(-c3cccnc3)c1)n2CC(C)(C)O
Output: 6.98

Task: Field entry: COc1ccccc1-c1cc(C(=O)/N=c2\[nH]c3cc(C)ccc3n2[C@H]2CC[C@@H](O)CC2)ccn1
Output: 8.06

----------
Target: EGFR del19 T790M C797S protein in Ba/F3 cells (Homo sapiens, UniProt P00533, C797S/DEL746-750/T790M)
Sequence (P00533 with tags, fused parts or gaps C797S/DEL746-750/T790M limits assumed): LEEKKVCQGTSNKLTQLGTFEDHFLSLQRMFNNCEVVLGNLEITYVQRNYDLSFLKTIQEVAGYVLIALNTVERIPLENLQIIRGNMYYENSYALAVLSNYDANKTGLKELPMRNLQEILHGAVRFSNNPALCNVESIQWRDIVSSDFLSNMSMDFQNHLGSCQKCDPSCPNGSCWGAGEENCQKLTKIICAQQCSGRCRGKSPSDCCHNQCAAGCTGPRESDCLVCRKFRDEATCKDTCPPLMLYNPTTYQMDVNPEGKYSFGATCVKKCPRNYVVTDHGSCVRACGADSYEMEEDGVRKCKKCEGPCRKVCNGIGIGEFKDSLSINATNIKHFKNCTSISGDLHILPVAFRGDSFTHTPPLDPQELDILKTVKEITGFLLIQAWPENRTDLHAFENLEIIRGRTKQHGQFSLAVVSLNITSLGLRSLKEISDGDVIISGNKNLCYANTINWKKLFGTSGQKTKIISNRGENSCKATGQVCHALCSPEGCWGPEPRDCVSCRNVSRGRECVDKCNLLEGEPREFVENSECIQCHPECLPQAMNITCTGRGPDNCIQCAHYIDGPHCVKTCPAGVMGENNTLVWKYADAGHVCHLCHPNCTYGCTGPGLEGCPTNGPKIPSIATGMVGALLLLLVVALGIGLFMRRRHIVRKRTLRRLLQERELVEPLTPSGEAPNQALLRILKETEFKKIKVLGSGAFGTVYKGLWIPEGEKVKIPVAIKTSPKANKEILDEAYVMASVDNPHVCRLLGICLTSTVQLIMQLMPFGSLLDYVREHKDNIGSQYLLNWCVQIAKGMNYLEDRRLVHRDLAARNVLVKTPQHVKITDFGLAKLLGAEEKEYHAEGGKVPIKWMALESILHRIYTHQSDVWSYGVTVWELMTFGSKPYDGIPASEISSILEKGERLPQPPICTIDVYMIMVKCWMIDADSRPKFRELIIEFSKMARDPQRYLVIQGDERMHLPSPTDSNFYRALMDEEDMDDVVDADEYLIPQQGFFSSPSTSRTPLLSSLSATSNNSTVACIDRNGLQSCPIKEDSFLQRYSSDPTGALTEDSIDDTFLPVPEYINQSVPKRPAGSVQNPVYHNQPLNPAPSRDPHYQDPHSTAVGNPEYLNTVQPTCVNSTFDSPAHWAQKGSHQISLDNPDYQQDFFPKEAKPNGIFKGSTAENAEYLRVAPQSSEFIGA
Assay: pEGFR assay (AlphaScreen Surefire, EGFR Tyr1068 phosphorylation)
REPORTED METRIC: IC50 (nM)
Respond with the bare value in nM.

CC(C)(O)Cn1/c(=N/C(=O)c2ccnc(-c3ccccn3)c2)[nH]c2ccccc21: 97
O=C(/N=c1\[nH]c2ccccc2n1[C@H]1CC[C@@H](O)CC1)c1ccnc(-c2csc3ccccc23)c1: 39
Cc1ccc2c(c1)[nH]/c(=N\C(=O)c1ccnc(-c3cnn4cccnc34)c1)n2[C@H]1CC[C@@H](O)CC1: 1

Task: Name the recorded IC50 for Cn1cc(-c2cc(C(=O)/N=c3\[nH]c4cc(N5CCOC(C)(C)C5)ccc4n3CC(C)(C)O)ccn2)cn1 .
Output: 54

Task: Field entry: Cn1cc(-c2cc(C(=O)/N=c3\[nH]c4cc(C5CCOCC5)ccc4n3CC(C)(C)O)ccn2)cn1
Output: 3

Task: Field entry: C[C@@H]1CN(c2ccc3c(c2)[nH]/c(=N\C(=O)c2ccnc(-c4cnn(C)c4)c2)n3CC(C)(C)O)C[C@H](C)N1C
Output: 81

Task: Field entry: Cn1cc(-c2cc(C(=O)/N=c3\[nH]c4cc(C(C)(C)O)ccc4n3CC(C)(C)O)ccn2)cn1
Output: 74

Task: Field entry: COc1ccccc1-c1cc(C(=O)/N=c2\[nH]c3ccccc3n2[C@H]2CCC[C@H](O)C2)ccn1 [I-119]
Output: 3

----------
Target: EGFR del19 T790M C797S protein in Ba/F3 cells (Homo sapiens, UniProt P00533, C797S/DEL746-750/T790M)
Experiment: pEGFR assay (AlphaScreen Surefire, EGFR Tyr1068 phosphorylation)
REPORTED METRIC: IC50 (nM)
Respond with the bare value in nM.

# count of solved cases: 4
Cc1nn(C)cc1-c1cc(C(=O)/N=c2\[nH]c3ccccc3n2C2CCCC2)ccn1: 11
COCCCNc1ccc2c(c1)[nH]/c(=N\C(=O)c1ccnc(-c3cccnc3)c1)n2CC(C)(C)O: 5
Cc1cc(C(=O)/N=c2\[nH]c3ccc(CN4CCOCC4)cc3n2[C@H]2CC[C@@H](O)CC2)cc(-c2cnn(C)c2)n1: 4
CN1CCC(c2ccc3c(c2)[nH]/c(=N\C(=O)c2ccnc(-c4cccnc4)c2)n3C2CCCC2)CC1: 77

Proceeding to the next compound to report its IC50.
Task: Name the recorded IC50 for Cc1ccc2c(c1)[nH]/c(=N\C(=O)c1ccnc(-c3cccc(CN(C)C)c3)c1)n2[C@H]1CC[C@@H](O)CC1 .
Output: 4
